Target: Calmodulin-1 (Homo sapiens)
Experiment: CALM1 binders on microarrays, EGTA buffer, profiling panel, biochemical, small-molecule microarray, Cy5-labelled CALM1 (AID 1111);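 further: labelled calmodulin applied in Tris saline Tween buffer holding calcium plus EGTA and DTT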
Conditions: Cy5-CALM1 binding fluorescence, higher = more signal
composite z-score: recorded values

| compound | composite z-score |
| --- | --- |
| O=C1c2ccccc2[C@](Cc2ccccc2I)(C(=O)NCc2ccccc2)[C@H](c2ccc(CO)cc2)N1Cc1ccccc1C(F)(F)F | -0.027 |
| Cc1ccc(S[C@]2(C(=O)NC3CC3)CC(=O)N(Cc3cc(C(F)(F)F)cc(C(F)(F)F)c3)[C@@H]2c2ccc(CO)cc2)cc1 | -0.125 |
| CO[C@H]1COC(=O)[C@@H](C)COC(=O)[C@H](Cc2ccccc2)NC(=O)CC=C[C@H]1C | -1.69 |
| CC(C)[C@H]1NC(=O)[C@@]23C(=O)N[C@@H](Cc4ccccc4)C2[C@H](C)[C@@]2(C)O[C@H]2C3/C=C/C/C=C\CNC(=O)[C@H](C)NC1=O (some centres undefined) | -0.703 |

* * *

Assay: modulators of HCV replicon luciferase signal, primary screen, HCV replication inhibitor project, Huh7 cells, luciferase reporter (AID 1109);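 further: huh7 hepatoma cells harbouring a luciferase neomycin HCV replicon reporter; luciferase luminescence as measure of HCV replicon replication; test concentration not given here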
Details: 48 h, higher = more signal
Label yes when z-score is at or above -0.6; anything below gets no.

| compound | class name |
| --- | --- |
| C=CCN1C(=O)[C@@]2(Cc3ccccc3)N=C(c3ccc(OCCCO)cc3)O[C@H]2c2ccccc21 | no |
| Cc1ccc(S[C@]2(C(=O)NCCN3CCOCC3)CC(=O)N(C3Cc4ccccc4C3)[C@@H]2c2ccc(CO)cc2I)cc1 | no |
| CO[C@@H]1COC(=O)[C@H](C)NC(=O)CC=C[C@@H](C)[C@H](NS(=O)(=O)c2ccc(C)cc2)COC(=O)CC=C[C@@H]1C | yes |
| COCCOC(=O)N1C(=O)[C@@]2(c3cc(C#CCCO)ccc31)[C@H](c1ccc(O)cc1)N1[C@H](c3ccccc3)[C@H](c3ccccc3)OC(=O)[C@H]1[C@@H]2C(=O)Nc1nc2ccccc2s1 | yes |
| C=C(C)[C@@H]1CC=C(C(O)C2C=CC3C(=O)NC(=O)C3N2Nc2ccccn2)CC1 (some centres not stated) | yes |
| Cc1ccc(S[C@]2(C(=O)NC(C)C)CC(=O)N(Cc3cc(C(F)(F)F)cc(C(F)(F)F)c3)[C@@H]2c2ccc(CO)cc2I)cc1 | yes |

* * *

Molecular target: Calmodulin-1 (Homo sapiens)
Assay: CALM1 binders on microarrays, EGTA buffer, profiling panel, biochemical, small-molecule microarray, Cy5-labelled CALM1 (AID 1111);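 further: labelled calmodulin applied in Tris saline Tween buffer holding calcium plus EGTA and DTT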
Settings: Cy5-CALM1 binding fluorescence, higher = more signal
assay endpoint: composite z-score

| compound | observed measurement |
| --- | --- |
| COc1ccc([C@H]2C[C@H]3C(Br)=C[C@]2(OC)C(=O)[C@]32CO2)cc1 | -0.408 |
| C[C@@H]1CC[C@H]2C(=O)N3CCC[C@H]3C(=O)N2[C@H]1c1ccc(Br)cc1 | -0.243 |
| CCN1C(C)=C(C(=O)OC)[C@@H](c2ccccc2)N2C(=O)[C@](O)(C(=O)OC)[C@@H](c3ccccc3)C(C(C)=O)=C12 | -0.693 |
| CCCC=C(CCC)[C@@H](NS(=O)(=O)c1ccc(-c2ccccc2)cc1)c1ccc(C(=O)OC)cc1 | 0.601 |
| C=CCN1C(=O)[C@]2(O[C@H](CCn3cc(CCO)nn3)[C@@H]([Si](C)(C)c3ccc(OC)cc3)[C@@H]2C)c2cc(NC(=O)c3ccc(OC)cc3)ccc21 | 0.289 |
| COC(=O)C[C@H]1O[C@]2(C(=O)N(Cc3ccccc3)c3ccc(I)cc32)[C@@H](C)[C@@H]1[Si](C)(C)c1ccc(OC)cc1 | 0.267 |
| C[C@@H]1C=CCC(=O)OC[C@H]2O[C@@H](C=C[C@@H]2O)[C@H](C)C=CCC(=O)OC[C@H]2O[C@H]1C=C[C@@H]2O | -0.365 |
| CN1CCC(CCCO)=CC1C1CC1 (stereo not drawn) | -1.21 |

* * *

Assay: small-molecule microarray binders of probe aWnt5a, primary screen, biochemical, biotinylated probe, 635/667 nm fluorescence (AID 1113);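 further: score merges 667 nm fluorescence intensity with signal-to-noise per printed feature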
Details: higher = more signal
We begin with a simple list: items and their reported composite z-score.

| smiles structure | composite z-score |
| --- | --- |
| Cc1ccc(S[C@]2(C(=O)O)CC(=O)N(Cc3cc(C(F)(F)F)cc(C(F)(F)F)c3)[C@@H]2c2ccc(CO)cc2I)cc1 | -0.0824 |
| COCCOC(=O)N1C(=O)[C@@]2(c3cc(C#CCCO)ccc31)[C@H](C(=O)N1CCCCCCC1)[C@H]1C(=O)O[C@H](c3ccccc3)[C@H](c3ccccc3)N1[C@@H]2c1ccc(O)cc1 | 0.0775 |
| C=C(/C(=C/C[C@@H](OC(=O)c1ccncc1)c1ccc(CO)o1)c1cnc2ccccc2c1)C(C)C | -0.124 |
| CC(=O)NCCCC[C@@H]1NC(=O)[C@H]2C[C@@H](C(=O)NCCCCCCN(C)C)[C@@H](c3cccc(OCCO)c3)N2C1=O | -0.0185 |
| CCC(=O)[C@]12O[C@@]3([C@@H]4C(=O)OCC[C@@H]41)N(CC)C(C)=C(C(=O)OC)[C@@H](c1ccccc1)N3C2=O | -0.147 |
| C=CCNC(=O)[C@H]1[C@@H]2C(=O)O[C@@H](c3ccccc3)[C@@H](c3ccccc3)N2[C@@H](c2ccccc2OCCO)[C@]12C(=O)N(C(=O)OCCOC)c1ccc(C#CCNC(N)=O)cc12 | -0.124 |

* * *

Test: basal S. cerevisiae growth modulation, no modifier, primary screen, OD600, strain BY4716, 24 h, basal condition (AID 1173)
Details: OD600, 24 h, higher = more signal, called active from +8 up or from −8 down
Please enter MET where z-score is greater than or equal to -1, and NOT MET where it is lower.

| compound | class name |
| --- | --- |
| CC(C)(C)OC(=O)CC[C@]1(C(=O)N2CCCCC2)N=C(c2ccc(OCCCO)cc2)O[C@H]1c1ccccc1 | NOT MET |
| O=C1O[C@H](c2ccccc2)[C@H](c2ccccc2)N2[C@H]1[C@@H](C(=O)NC[C@H](O)c1ccccc1)[C@]1(C(=O)Nc3ccc(C#CC4(O)CCCCCC4)cc31)[C@H]2c1ccc(OCCO)cc1 | MET |
| CC(C)[C@H]1NC(=O)[C@@]23C(=O)N[C@@H](Cc4ccccc4)C2[C@H](C)[C@@]2(C)O[C@H]2C3/C=C/C/C=C\CNC(=O)[C@H](C)NC1=O (some centres not stated) | MET |
| C=C(CCCC)C(=O)CC[C@@H](OC(=O)c1cccnc1)c1cccc(OCCO)c1 | NOT MET |
| C/C(=N\O)C(=O)NCCCCCNC(=O)OCc1ccccc1 | NOT MET |
| CO[C@@H]1COC(=O)CC=C[C@@H](C)[C@H](OC)COC(=O)CC=C[C@H]1C | NOT MET |
| CO[C@H]1O[C@H](CO)[C@@H](OC(=O)Nc2ccc3c(c2)OCO3)[C@H](OC(=O)Nc2ccccc2)[C@@H]1OC(=O)Nc1ccccc1 | MET |
| C[C@@H]1CC[C@H]2C(=O)N3[C@@H](CC[C@@H](C)[C@@H]3c3cccc(N4CCOCC4)c3)C(=O)N2[C@H]1c1cccc(Br)c1 | NOT MET |
| CO[C@H]1O[C@H](CO)[C@@H](OC(=O)Nc2ccccc2)[C@H](OC(=O)Nc2ccc3c(c2)OCO3)[C@@H]1OC(=O)Nc1ccc2c(c1)OCO2 | MET |
| C=CC[C@@]1(C(=O)NCC(O)CO)N=C(c2ccc(OCCCO)cc2)O[C@@H]1c1ccccc1CN=[N+]=[N-] (some centres not stated) | NOT MET |
| CC[C@@H]1C=C(C(=O)O)[C@H](c2ccccc2)N1S(=O)(=O)c1ccc([N+](=O)[O-])cc1 | MET |
| CO[C@H]1O[C@H](CO)[C@@H](OC(=O)Nc2ccc(Oc3ccccc3)cc2)[C@H](OC(=O)Nc2ccccc2-c2ccccc2)[C@H]1OC(=O)Nc1ccccc1-c1ccccc1 | MET |
| C#CCCCON=C1C[C@@H](O)[C@@H](O)[C@@H]2[C@@H]3C(=O)N(Cc4ccc5c(c4)OCO5)C(=O)[C@@H]3CC[C@@H]12 | MET |
| C=CC(=O)O[C@@H](Cc1ccccc1)[C@H]1C2C=CCCC=C2CN1Cc1cccc(Cl)c1 (some centres not stated) | NOT MET |
| COCCOC(=O)N1C(=O)[C@@]2(c3cc(C#CC4=CCCCC4)ccc31)[C@H](C(=O)NC[C@H](O)c1ccccc1)[C@H]1C(=O)O[C@H](c3ccccc3)[C@H](c3ccccc3)N1[C@@H]2c1ccccc1OCCO | MET |
| C=C(COC)/C(=C/C[C@@H](OC(=O)c1ccncc1)c1ccc(OCCO)cc1)c1cc(C(=O)OC)ccc1OC | NOT MET |
| COC(=O)Cn1c(C(=O)N2CCCC2)cc2c1C[C@H]1CN(C(=O)c3ccccc3)[C@@](Cc3ccccc3)(C(=O)OC)[C@@H]21 | MET |
| COC(=O)C1=C(C)N(Cc2ccccc2)c2c(C(=O)OC)c(C(=O)OC)c(C(=O)OC)c(=O)n2[C@@H]1c1ccccc1 | NOT MET |
| O=C1O[C@@H](c2ccccc2)[C@@H](c2ccccc2)N2[C@@H](c3ccccc3OCCO)[C@]3(C(=O)Nc4ccc(C#CC5=CCCCC5)cc43)[C@@H](C(=O)O)[C@H]12 | MET |
| COc1cc2c(cc1OC)CN(C(=O)[C@H]1[C@@H]3C(=O)O[C@@H](c4ccccc4)[C@@H](c4ccccc4)N3[C@@H](c3ccc(O)cc3)[C@]13C(=O)Nc1ccc(C#CC4(O)CCCCCC4)cc13)CC2 | MET |
| CN(C)c1ccc(C(O)C2C=CC3C(=O)NC(=O)C3N2Nc2ccc(Cl)cc2Cl)cc1 (configuration not stated) | MET |
| CCCNC(=O)[C@@H]1c2ccccc2C(=O)N(C2CCCCC2)[C@H]1c1ccc(CO)cc1 | MET |
| COc1ccc([Si](C)(C)[C@H]2[C@H](CC(=O)N3Cc4ccccc4C[C@H]3CO)O[C@@]3(C(=O)N(Cc4cccc(N5CCOC5=O)c4)c4ccccc43)[C@@H]2C)cc1 | NOT MET |
| Cc1ccc(S(=O)(=O)c2cc3oc2CC[C@@H](CO)NC(=O)N(C)Cc2cn(nn2)C[C@H](Cc2ccccc2)NC3=O)cc1 | NOT MET |
| COC(=O)C(CC#Cc1ccc2c(c1)[C@]1(C(=O)N2)[C@H](C(=O)N2CCCCCCC2)[C@H]2C(=O)O[C@H](c3ccccc3)[C@H](c3ccccc3)N2[C@@H]1c1ccc(O)cc1)C(=O)OC | MET |
| CCOC(=O)C[C@H]1[C@H](OC(=O)Cc2ccc3c(c2)OCO3)[C@@H](NC(=O)CC(C)C)c2cc(OCCCO)ccc2N1C(=O)c1ccccc1 | NOT MET |
